These measurements were taken from patent US4385057A.

- Test system: mouse-killing behaviour of rats
- assay: Spontaneous mouse-killing (muricide) by rats
- Format: in vivo, rat (male hooded Long-Evans)
- measurement.conditions: Rattus norvegicus, sc; 1 hr after injection; read-out: ED50, mg/kg, s.c., 1 hr
- Experimental: For the purpose of detecting new psychotropic substances with antiaggressive properties, pharmacologist have used several different models. […] This form of aggressive behaviour which is considered to be of predatory nature, is physiologically and topographically different from other forms of aggression (M. O'Boyle, Psychol. Bull. 81, 261 (1974)). […] Doses were selected to form a dose-response curve and the mean effective dose (ED50, mg/kg) was calculated by means of linear regression. […]
quantity.measured: ED50 (mg/kg)
Give bare numbers, in mg/kg.

Some entries whose results are on file:
[[record]]
compound = "CNC(=O)N1CCN(CCCC(c2ccc(F)cc2)c2ccc(F)cc2)CC1 [I]"
reported_result = 0.5

[[record]]
compound = "CNC(=S)N1CCN(CCCC(c2ccc(F)cc2)c2ccc(F)cc2)CC1 [IV]"
reported_result = 0.1

[[record]]
compound = "CCNC(=O)N1CCN(CCCC(c2ccc(F)cc2)c2ccc(F)cc2)CC1 [II]"
reported_result = 0.4


# evaluate next
Request: What measured ED50 goes with CNC(=O)N1C[C@H](C)N(CCCC(c2ccc(F)cc2)c2ccc(F)cc2)C[C@H]1C (relative stereo) [III] ?
Response: 1.9

----------
- Tested on: isolation-induced aggressive behaviour of male mice
- assay: Isolation-induced aggressive behaviour
- Assay type: in vivo, mouse (male NMR mice)
- measurement.conditions: Mus musculus, sc; 1.0 hour after drug administration; read-out: ED50, mg/kg, sc (dose inhibiting aggressive behaviour among 50 percent of the pairs)
quantity.measured: ED50 (mg/kg)
One number for each entry, in mg/kg.

Hi team, please reply with ED50 for each item in this list.
1. CNC(=O)N1CCN(CCCC(c2ccc(F)cc2)c2ccc(F)cc2)CC1
2. CN(C)CCC=C1c2ccccc2CCc2ccccc21 [Amitriptyline, reference compound]
3. CNC(=O)N1C[C@H](C)N(CCCC(c2ccc(F)cc2)c2ccc(F)cc2)C[C@H]1C (relative stereo)
4. CNC(=S)N1CCN(CCCC(c2ccc(F)cc2)c2ccc(F)cc2)CC1

Response:
1. 4.8
2. 5
3. 2.6
4. 2

Request: What measured ED50 goes with CCNC(=O)N1CCN(CCCC(c2ccc(F)cc2)c2ccc(F)cc2)CC1 ?
Response: 1.3

----------
- System: exploratory activity / climbing of mice
- assay: Climbing (inability to ascend net-ladder)
- Assay type: in vivo, mouse (NMRI female)
- measurement.conditions: Mus musculus, sc; 0.5 h after administration; read-out: ED50, mg/kg, s.c. (dose rendering 50% of the mice incapable of entering the top of the net-ladder)
Field: ED50. Provide a value for each of the molecules that follow.

Some entries whose results are on file:
[[record]]
molecule = "CCNC(=O)N1CCN(CCCC(c2ccc(F)cc2)c2ccc(F)cc2)CC1 [II]"
measured_target = "exploratory activity / climbing of mice"
reported_result = "0.7 mg/kg"

[[record]]
molecule = "CNC(=S)N1CCN(CCCC(c2ccc(F)cc2)c2ccc(F)cc2)CC1 [IV]"
measured_target = "exploratory activity / climbing of mice"
reported_result = "5.1 mg/kg"


Hi team, please reply with ED50 for each item in this list.
1. CNC(=O)N1CCN(CCCC(c2ccc(F)cc2)c2ccc(F)cc2)CC1 [I]
2. CNC(=O)N1C[C@H](C)N(CCCC(c2ccc(F)cc2)c2ccc(F)cc2)C[C@H]1C (relative stereo) [III]

Response:
1.5 mg/kg
1 mg/kg

----------
- System: mouse-killing behaviour of rats
- assay: Spontaneous mouse-killing (muricide) by rats
- Assay type: in vivo, rat (male hooded Long-Evans)
- measurement.conditions: Rattus norvegicus, sc, read-out: ED50, mg/kg; s.c.; 2 hrs after injection
quantity.measured: ED50 (mg/kg)
One number for each entry, in mg/kg.

[[record]]
compound = "CNC(=S)N1CCN(CCCC(c2ccc(F)cc2)c2ccc(F)cc2)CC1 [IV]"
reported_result = 0.1

[[record]]
compound = "CCNC(=O)N1CCN(CCCC(c2ccc(F)cc2)c2ccc(F)cc2)CC1 [II]"
reported_result = 1.9

[[record]]
compound = "CN(C)CCC=C1c2ccccc2CCc2ccccc21 [Amitriptyline, reference compound]"
reported_result = 6.4

[[record]]
compound = "CNC(=O)N1C[C@H](C)N(CCCC(c2ccc(F)cc2)c2ccc(F)cc2)C[C@H]1C (relative stereo) [III]"
reported_result = 2.9


Request: Provide value of ED50 for this record tested with mouse-killing behaviour of rats: CNC(=O)N1CCN(CCCC(c2ccc(F)cc2)c2ccc(F)cc2)CC1 [I]
Response: 0.7

----------
Field: ED50. Provide a value for each of the compounds that follow.
- Test system: acetic acid induced writhing
- assay: Writhing test (analgetic properties)
- Assay type: in vivo, mouse (NMRI female)
- measurement.conditions: Mus musculus, sc, 20 min before acetic acid i.p.; read-out: ED50, mg/kg, s.c. (dose blocking the writhing behaviour in 50% of the animals)
Numbers only, in mg/kg.

Some entries whose results are on file:
[[record]]
compound = "CCNC(=O)N1CCN(CCCC(c2ccc(F)cc2)c2ccc(F)cc2)CC1"
measured_target = "acetic acid induced writhing"
reported_result = 0.7

[[record]]
compound = "CNC(=O)N1C[C@H](C)N(CCCC(c2ccc(F)cc2)c2ccc(F)cc2)C[C@H]1C (relative stereo)"
measured_target = "acetic acid induced writhing"
reported_result = 1

[[record]]
compound = "CNC(=O)N1CCN(CCCC(c2ccc(F)cc2)c2ccc(F)cc2)CC1"
measured_target = "acetic acid induced writhing"
reported_result = 0.5


# evaluate next
Request: What measured ED50 goes with CNC(=S)N1CCN(CCCC(c2ccc(F)cc2)c2ccc(F)cc2)CC1 ?
Response: 1.4
